Attribution: ChEMBL document CHEMBL1147392

Test system: Staphylococcus aureus
outcomeMeasure: MIC (µg/mL)

Example compounds with recorded MIC:
smi	outputUnit	MIC
COc1cc(OC)c2c(c1CC=C(C)C)O[C@H](c1c(CC=C(C)C)cc(OC)c(OC)c1CC=C(C)C)[C@@H](O)C2=O	µg/mL	12.5
CN[C@@H]1[C@H](O[C@H]2[C@H](O[C@H]3[C@H](O)[C@@H](O)[C@H](N=C(N)N)[C@@H](O)[C@@H]3N=C(N)N)O[C@@H](C)[C@]2(O)C=O)O[C@@H](CO)[C@H](O)[C@H]1O	µg/mL	6.25

I: COc1cc(CC=C(C)C)c(-c2oc3c(CC=C(C)C)c(OC)cc(OC)c3c(=O)c2OC)c(CC=C(C)C)c1OC
II: CC(C)=CCc1cc(O)c(O)c(CC=C(C)C)c1[C@H]1Oc2c(CC=C(C)C)c(O)cc(O)c2C(=O)[C@@H]1O
Exercise: Pick one: I or II . Which one has the lower reported MIC? When you have decided, please share the label of that item.
Key: II
(II: 3.12 µg/mL, I: 12.5 µg/mL)
